test system: SR leukemia; assay: NCI tumour cell line growth inhibition, 48 h
Each item that follows carries a reported GI50.

// solved cases for GI50 follow
Req: Would you mind telling me what GI50 value was observed for CNC(=O)c1cc(Oc2cccc3nc(NC(=O)Nc4cc(C(F)(F)F)cc(C(F)(F)F)c4)ccc23)ccn1 ?
Resp: 13 µM

Req: Would you mind telling me what GI50 value was observed for O=C(CSCC(=O)N/N=C/c1ccccc1O)N/N=C\c1ccccc1O ?
Resp: 0.668 µM

Req: Would you mind telling me what GI50 value was observed for CC(=O)Oc1ccc2c(c1)[C@@]1(C)CCCC(C)(C)[C@@H]1CC2 ?
Resp: > 100 µM

Kindly review the next molecule as well.
Req: Would you mind telling me what GI50 value was observed for Cc1cc(C(=O)Nc2n[nH]c3ccccc23)n[nH]1 ?
Resp: 80.6 µM
